Assay: Half life in Sprague-Dawley rat liver microsomes at 100 uM by HPLC-UV analysis
Type: ADME, Microsome
observable: half-life at 100 µM
Record the result as number plus unit.

Look up and state reported half-life at 100 µM for CC(=O)O[C@@H]1C[C@@H](OC(=O)c2ccccc2)/C(C)=C/[C@H]2[C@@H](OC(=O)c3ccccc3)[C@@H](C)[C@H](O)[C@]2(OC(C)=O)[C@H](O)[C@](C)(O)CCC1(C)C
14.4 h

Indicate the recorded half-life at 100 µM value for this compound: COc1cc2c(cc1OC)CN(CCc1ccc(NC(=O)c3cc(OC)c(OC)cc3NC(=O)c3cnc4ccccc4c3)cc1)CC2
3.5 h
